Values compiled from paper PMC9185959.

Target: NaV1.2 (Homo sapiens)
Construct: full-length channel, stably expressed in HEK293T cells; splice form and beta subunits not mentioned
Sequence (Q99250 whole entry, canonical isoform): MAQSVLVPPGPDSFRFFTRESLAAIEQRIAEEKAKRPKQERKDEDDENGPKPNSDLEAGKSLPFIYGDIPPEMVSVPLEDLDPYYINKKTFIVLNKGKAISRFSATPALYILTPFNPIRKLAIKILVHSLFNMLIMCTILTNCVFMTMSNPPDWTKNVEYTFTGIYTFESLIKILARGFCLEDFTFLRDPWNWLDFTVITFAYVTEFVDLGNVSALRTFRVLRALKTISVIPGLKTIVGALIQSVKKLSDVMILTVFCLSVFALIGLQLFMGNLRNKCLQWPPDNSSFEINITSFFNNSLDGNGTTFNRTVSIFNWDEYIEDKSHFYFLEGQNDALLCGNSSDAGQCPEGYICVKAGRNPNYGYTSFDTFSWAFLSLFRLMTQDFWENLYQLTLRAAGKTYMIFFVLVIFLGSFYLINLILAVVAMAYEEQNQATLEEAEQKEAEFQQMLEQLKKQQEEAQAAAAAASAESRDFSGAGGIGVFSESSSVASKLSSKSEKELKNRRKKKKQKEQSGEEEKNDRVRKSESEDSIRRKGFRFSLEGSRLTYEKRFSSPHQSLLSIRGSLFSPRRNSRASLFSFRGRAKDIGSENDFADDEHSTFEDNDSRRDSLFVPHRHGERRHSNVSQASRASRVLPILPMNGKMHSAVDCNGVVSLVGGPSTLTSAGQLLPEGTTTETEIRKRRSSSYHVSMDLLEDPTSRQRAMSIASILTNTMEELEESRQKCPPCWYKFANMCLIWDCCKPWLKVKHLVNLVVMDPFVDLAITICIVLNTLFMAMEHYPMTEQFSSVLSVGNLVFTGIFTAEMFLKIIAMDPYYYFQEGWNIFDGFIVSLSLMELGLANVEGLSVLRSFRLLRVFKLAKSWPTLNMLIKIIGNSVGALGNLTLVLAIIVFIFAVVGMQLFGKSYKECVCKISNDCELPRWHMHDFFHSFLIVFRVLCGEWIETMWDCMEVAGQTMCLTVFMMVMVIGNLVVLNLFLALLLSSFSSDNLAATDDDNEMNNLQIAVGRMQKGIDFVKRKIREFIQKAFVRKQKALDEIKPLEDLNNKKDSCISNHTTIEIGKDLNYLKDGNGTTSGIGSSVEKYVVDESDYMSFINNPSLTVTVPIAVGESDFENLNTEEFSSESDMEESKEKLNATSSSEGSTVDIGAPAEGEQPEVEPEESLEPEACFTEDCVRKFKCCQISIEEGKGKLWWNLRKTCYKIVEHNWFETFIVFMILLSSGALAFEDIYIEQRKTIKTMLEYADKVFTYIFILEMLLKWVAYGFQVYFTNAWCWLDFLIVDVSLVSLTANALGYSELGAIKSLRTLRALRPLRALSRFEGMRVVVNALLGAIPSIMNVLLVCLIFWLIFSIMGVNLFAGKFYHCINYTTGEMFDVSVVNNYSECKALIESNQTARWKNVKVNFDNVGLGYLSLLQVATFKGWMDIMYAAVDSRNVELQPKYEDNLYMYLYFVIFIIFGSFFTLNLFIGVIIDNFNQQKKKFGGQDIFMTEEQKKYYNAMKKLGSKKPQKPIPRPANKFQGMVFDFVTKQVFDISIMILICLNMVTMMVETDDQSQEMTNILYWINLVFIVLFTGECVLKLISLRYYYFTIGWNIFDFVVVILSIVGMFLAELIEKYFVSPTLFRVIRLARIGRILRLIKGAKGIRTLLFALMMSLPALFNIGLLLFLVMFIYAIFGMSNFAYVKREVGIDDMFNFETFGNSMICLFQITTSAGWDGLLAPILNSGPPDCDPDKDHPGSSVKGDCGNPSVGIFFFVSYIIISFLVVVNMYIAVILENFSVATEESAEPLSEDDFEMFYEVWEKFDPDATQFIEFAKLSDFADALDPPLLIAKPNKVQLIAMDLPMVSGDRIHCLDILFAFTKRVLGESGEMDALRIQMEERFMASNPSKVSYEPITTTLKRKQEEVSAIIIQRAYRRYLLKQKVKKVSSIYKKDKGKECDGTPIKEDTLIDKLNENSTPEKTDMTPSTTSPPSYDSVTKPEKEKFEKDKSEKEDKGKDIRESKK
Experiment: automated planar patch-clamp, whole-cell peak current
Settings: holding -80 mV, 200 ms at -120 mV then test pulse to 0 mV every 2 s; 5 min exposure, cumulative 0.1-100 μM; 0.1% DMSO; pH 7.4; 27°C; n=6
OBSERVABLE: IC50 (µM)

MOLECULE | RESULT VALUE
C=C(C)[C@@H]1CCC(C)=C[C@H]1c1c(O)cc(CCCCC)cc1O [CBD] | 18.4

====

Target: NaV1.1 (Homo sapiens)
Construct: full-length channel, stably expressed in HEK293T cells; beta subunits not mentioned
Assay: automated planar patch-clamp, whole-cell peak current
Conditions: holding -80 mV, 200 ms at -120 mV then test pulse to 0 mV every 2 s; 5 min exposure, cumulative 0.1-100 μM; 0.1% DMSO; pH 7.4; 27°C; n=9
pIC50: −log10 of the molar value.

STRUCTURE SMILES STRING | pIC50
C=C(C)[C@@H]1CCC(C)=C[C@H]1c1c(O)cc(CCCCC)cc1O | 4.73

====

Molecular target: NaV1.7 (Homo sapiens, UniProt Q15858)
Construct: full-length channel, stably expressed in HEK293T cells; beta subunits not mentioned
Sequence (Q15858 whole entry): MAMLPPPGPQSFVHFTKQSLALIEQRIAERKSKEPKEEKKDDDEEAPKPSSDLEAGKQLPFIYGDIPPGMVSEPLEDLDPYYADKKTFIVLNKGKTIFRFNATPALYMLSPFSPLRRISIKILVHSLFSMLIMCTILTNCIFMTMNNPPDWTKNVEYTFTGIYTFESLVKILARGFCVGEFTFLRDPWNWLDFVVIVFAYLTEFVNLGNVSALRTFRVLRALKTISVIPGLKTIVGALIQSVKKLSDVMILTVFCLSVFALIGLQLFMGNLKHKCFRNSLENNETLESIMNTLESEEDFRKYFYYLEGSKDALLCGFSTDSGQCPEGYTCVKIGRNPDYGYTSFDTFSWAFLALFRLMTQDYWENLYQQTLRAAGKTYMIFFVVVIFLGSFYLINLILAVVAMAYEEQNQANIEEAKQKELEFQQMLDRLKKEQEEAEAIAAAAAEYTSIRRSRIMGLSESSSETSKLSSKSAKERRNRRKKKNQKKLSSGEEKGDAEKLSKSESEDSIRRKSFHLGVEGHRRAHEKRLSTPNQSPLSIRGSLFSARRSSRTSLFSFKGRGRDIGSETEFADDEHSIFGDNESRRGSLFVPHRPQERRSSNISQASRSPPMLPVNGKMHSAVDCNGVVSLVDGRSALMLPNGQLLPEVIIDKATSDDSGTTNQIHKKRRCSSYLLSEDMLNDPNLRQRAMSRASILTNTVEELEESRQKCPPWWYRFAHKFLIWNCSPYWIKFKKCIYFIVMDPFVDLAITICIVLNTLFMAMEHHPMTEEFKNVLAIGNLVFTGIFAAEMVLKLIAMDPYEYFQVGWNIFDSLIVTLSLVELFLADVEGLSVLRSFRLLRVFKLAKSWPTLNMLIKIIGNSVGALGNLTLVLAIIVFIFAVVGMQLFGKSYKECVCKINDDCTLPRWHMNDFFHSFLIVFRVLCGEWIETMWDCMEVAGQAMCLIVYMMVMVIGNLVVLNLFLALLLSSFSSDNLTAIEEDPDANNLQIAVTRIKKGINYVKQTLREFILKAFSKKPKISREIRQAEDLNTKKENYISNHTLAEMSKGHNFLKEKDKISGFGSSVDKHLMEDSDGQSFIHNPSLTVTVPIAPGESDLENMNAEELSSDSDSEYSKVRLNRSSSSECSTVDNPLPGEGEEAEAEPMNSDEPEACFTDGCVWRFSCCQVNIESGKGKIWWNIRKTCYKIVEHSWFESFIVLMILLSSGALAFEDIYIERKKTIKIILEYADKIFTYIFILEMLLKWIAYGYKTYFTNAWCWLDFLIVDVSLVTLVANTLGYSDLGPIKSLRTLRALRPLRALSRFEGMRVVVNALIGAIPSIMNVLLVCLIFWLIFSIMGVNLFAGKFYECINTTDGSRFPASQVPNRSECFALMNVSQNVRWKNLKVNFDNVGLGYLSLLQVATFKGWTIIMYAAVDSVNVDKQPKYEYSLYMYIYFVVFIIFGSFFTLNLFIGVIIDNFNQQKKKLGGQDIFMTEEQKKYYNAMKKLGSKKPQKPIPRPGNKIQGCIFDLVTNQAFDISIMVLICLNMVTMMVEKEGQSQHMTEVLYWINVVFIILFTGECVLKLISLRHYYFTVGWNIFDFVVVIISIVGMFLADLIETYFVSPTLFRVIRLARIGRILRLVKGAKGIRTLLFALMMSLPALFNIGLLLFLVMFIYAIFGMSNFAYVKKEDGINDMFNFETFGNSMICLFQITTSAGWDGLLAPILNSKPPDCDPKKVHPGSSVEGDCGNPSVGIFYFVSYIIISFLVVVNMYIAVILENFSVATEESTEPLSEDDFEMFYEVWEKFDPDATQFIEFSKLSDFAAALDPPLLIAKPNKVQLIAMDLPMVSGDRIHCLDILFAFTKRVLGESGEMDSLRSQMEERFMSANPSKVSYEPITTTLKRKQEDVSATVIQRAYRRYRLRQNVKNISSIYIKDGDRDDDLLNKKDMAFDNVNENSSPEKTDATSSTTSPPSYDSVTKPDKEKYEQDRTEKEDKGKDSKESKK
Test: automated planar patch-clamp, whole-cell peak current
Details: holding -80 mV, 200 ms at -120 mV then test pulse to 0 mV every 2 s; 5 min exposure, cumulative 0.1-100 μM; 0.1% DMSO; pH 7.4; 27°C; n=7

STRUCTURE SMILES STRING | UNIT LABEL | IC50
C=C(C)[C@@H]1CCC(C)=C[C@H]1c1c(O)cc(CCCCC)cc1O | µM | 11.9
